Where do these numbers come from? They come from the supplement of paper PMC10567573.

B1: TMEM106C (parent)
chain: TVPEILVHNIVIFMRTSVKISYIG

- Variants of: B1
- ASSAY COMMENT: protein stability index of a GFP-peptide fusion (GPS, HEK-293T) (PSI 1-6); higher = more stable;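 also: lentivirally expressed fusions sorted by FACS into six bins by GFP to DsRed ratio, PSI derived from sequencing read proportions per bin multiplied by bin number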
- EXPERIMENTAL CONTEXT: c terminus: a fixed tail appended

{"RESIDUE CHANGE": "V11L", "protein stability index": 1.78}
{"RESIDUE CHANGE": "S21W", "protein stability index": 1.95}
{"RESIDUE CHANGE": "F13A", "protein stability index": 3.07}
{"RESIDUE CHANGE": "V11Y", "protein stability index": 2.44}
{"RESIDUE CHANGE": "V18S", "protein stability index": 3.02}
{"RESIDUE CHANGE": "F13K", "protein stability index": 3.49}
{"RESIDUE CHANGE": "I20G", "protein stability index": 3.25}
{"RESIDUE CHANGE": "V2S", "protein stability index": 2.63}
{"RESIDUE CHANGE": "V18P", "protein stability index": 2.92}
{"RESIDUE CHANGE": "G24R", "protein stability index": 3.06}
{"RESIDUE CHANGE": "R15G", "protein stability index": 3.23}
